system: RA sensitive reporter construct pCYP26A1-luc in MCF-7 cells; test: Retinoid activity assay, RA sensitive pCYP26A1-luc reporter in MCF-7 cells; type: cell-based; details: 10 μM, 24 hours, firefly relative to Renilla luciferase
Label Condition met when Luciferase Activity RLU Avg is at or above 0.04 RLU; otherwise label Condition not met.

Some entries whose results are on file:
Compound	Qualitative label
Cc1cc2c(cc1S(=O)(=O)Nc1ccc(C(=O)O)cc1)C(C)(C)CCC2(C)C	Condition met
Cc1cc2c(cc1S(=O)(=O)Nc1ccc(C(C(=O)O)C(C)C)cc1)C(C)(C)CCC2(C)C (centres unmarked)	Condition not met
CCC(CC)(C(=O)O)c1ccc(NS(=O)(=O)c2cc3c(cc2C)C(C)(C)CCC3(C)C)cc1	Condition met
CC1(C)CCC(C)(C)c2cc(S(=O)(=O)Nc3ccc(C(=O)O)cc3)ccc21	Condition met
CC(C)c1cc2c(cc1C(=O)Nc1ccc(CC(=O)O)cc1)C(C)(C)CCC2(C)C	Condition not met
CC1(C)CCC(C)(C)c2cc(C(=O)Nc3ccc(CC(=O)O)cc3)ccc21	Condition not met

# input Test whether the compound Cc1cc2c(cc1S(=O)(=O)Nc1ccc(CC(=O)O)cc1)C(C)(C)CCC2(C)C records Luciferase Activity RLU Avg of 0.04 RLU or higher.
# output Condition not met

# input Same question, Cc1cc2c(cc1C(=O)Nc1ccc(CC(=O)O)cc1)C(C)(C)CCC2(C)C this time
# output Condition not met

# input Same question, CCC(CC)(C(=O)O)c1ccc(NS(=O)(=O)c2ccc3c(c2)C(C)(C)CCC3(C)C)cc1 this time
# output Condition not met

# input Same question, CN(C(=O)c1ccc2c(c1)C(C)(C)CCC2(C)C)c1ccc(CC(=O)O)cc1 this time
# output Condition not met

# input Same question, CC1(C)CCC(C)(C)c2cc(NC(=O)c3ccc(CC(=O)O)cc3)ccc21 this time
# output Condition not met

---

# IC50 annotations
biological target: CYP26B1 (Homo sapiens (Human), UniProt Q9NR63); experiment: Cell-based inhibitor assay, [H]-RA metabolism in CYP26B1 stably transfected HeLa cells; conditions: CYP26B1 transfected HeLa cells, 3 hours at 37° C., inhibition of all trans-RA metabolism; read-out: IC50 26B1
Sequence (Q9NR63 whole entry, species assumed): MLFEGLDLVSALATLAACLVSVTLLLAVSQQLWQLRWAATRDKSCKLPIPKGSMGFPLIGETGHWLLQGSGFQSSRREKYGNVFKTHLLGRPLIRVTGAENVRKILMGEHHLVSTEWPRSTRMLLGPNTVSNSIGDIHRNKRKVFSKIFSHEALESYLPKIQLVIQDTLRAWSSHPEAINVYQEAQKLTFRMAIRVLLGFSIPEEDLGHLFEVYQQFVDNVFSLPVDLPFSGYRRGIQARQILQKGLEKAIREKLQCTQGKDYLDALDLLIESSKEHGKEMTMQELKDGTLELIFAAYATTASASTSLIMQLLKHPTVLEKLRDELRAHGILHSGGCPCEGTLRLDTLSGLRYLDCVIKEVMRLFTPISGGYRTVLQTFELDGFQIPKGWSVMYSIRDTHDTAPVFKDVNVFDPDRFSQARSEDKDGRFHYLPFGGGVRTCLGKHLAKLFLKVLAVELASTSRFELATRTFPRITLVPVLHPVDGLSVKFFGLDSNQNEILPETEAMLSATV
Kindly provide the numeric value in µM only, without the unit symbol.

Record smiles	Quantity	Endpoint result
CC1(C)CCC(C)(C)c2cc(S(=O)(=O)Nc3ccc(CC(=O)O)cc3)ccc21	IC50	18.9

# input Record Cc1cc2c(cc1C(=O)Nc1ccc(C(C)(C)C(=O)O)cc1)C(C)(C)CCC2(C)C : what is its IC50 with CYP26B1 (Homo sapiens (Human), UniProt Q9NR63)?
# output 11.9

# input Same question, CCC(CC)(C(=O)O)c1ccc(NS(=O)(=O)c2cc3c(cc2C)C(C)(C)CCC3(C)C)cc1 this time
# output 9.07

# input Same question, Cc1cc2c(cc1C(=O)Nc1ccc(CC(=O)O)cc1)C(C)(C)CCC2(C)C this time
# output 2.06

---

target: UniProt:Q9NR63; experiment: Cell-based inhibitor assay, [H]-RA metabolism in CYP26B1 stably transfected HeLa cells; settings: read-out: IC50 26B1
Quantity: pIC50
pIC50 here: minus log base 10 of the concentration, concentration in moles per litre.

# input Can you look up the measured pIC50 of Cc1cc(S(=O)(=O)Nc2ccc(CC(=O)O)cc2)cc2c1OC(C)(C)CC2(C)C for me?
# output 4.66

---

tested on: RA sensitive reporter construct pCYP26A1-luc in MCF-7 cells; assay: Retinoid activity assay, RA sensitive pCYP26A1-luc reporter in MCF-7 cells; type: cell-based; settings: 10 μM, 24 hours, firefly relative to Renilla luciferase
Quantity: Luciferase Activity RLU Avg (RLU)
Kindly provide the numeric value in RLU only, without the unit symbol.

Worked examples, 5 compounds total:
Record smiles	System under test	Endpoint result
Cc1cc2c(cc1S(=O)(=O)Nc1ccc(C(C)(C)C(=O)O)cc1)C(C)(C)CCC2(C)C	RA sensitive reporter construct pCYP26A1-luc in MCF-7 cells	0.041
Cc1cc2c(cc1S(=O)(=O)Nc1ccc(C3(C(=O)O)CC3)cc1)C(C)(C)CCC2(C)C	RA sensitive reporter construct pCYP26A1-luc in MCF-7 cells	0.04
Cc1cc2c(c(C)c1C(=O)Nc1ccc(CC(=O)O)cc1)C(C)(C)CCC2(C)C	RA sensitive reporter construct pCYP26A1-luc in MCF-7 cells	0.084
Cc1cc2c(cc1C(=O)Nc1ccc(C(C)(C)C(=O)O)cc1)C(C)(C)CCC2(C)C	RA sensitive reporter construct pCYP26A1-luc in MCF-7 cells	0.155
CC(C)c1cc2c(cc1S(=O)(=O)Nc1ccc(CC(=O)O)cc1)C(C)(C)CCC2(C)C	RA sensitive reporter construct pCYP26A1-luc in MCF-7 cells	0.044

# input for lookup
# input Can you look up the measured Luciferase Activity RLU Avg of CC1(C)CCC(C)(C)c2cc(S(=O)(=O)Nc3ccc(CC(=O)O)c(F)c3)ccc21 for me?
# output 0.0012

---

molecular target: CYP26B1 (Homo sapiens (Human)); assay: Cell-based inhibitor assay, [H]-RA metabolism in CYP26B1 stably transfected HeLa cells; conditions: CYP26B1 transfected HeLa cells, 3 hours at 37° C., inhibition of all trans-RA metabolism; read-out: IC50 26B1
Quantity: IC50

Compound	Endpoint result
Cc1cc2c(cc1S(=O)(=O)Nc1ccc(C(=O)O)cc1)C(C)(C)CCC2(C)C [Cmpd 14]	> 100 µM
Cc1cc2c(cc1S(=O)(=O)Nc1ccc(C(C)(C)C(=O)O)cc1)C(C)(C)CCC2(C)C [Cmpd 12]	> 1000 µM
Cc1cc2c(cc1S(=O)(=O)Nc1ccc(C3(C(=O)O)CC3)cc1)C(C)(C)CCC2(C)C [Cmpd 13]	> 100 µM

# input for lookup
# input Can you look up the measured IC50 of Cc1cc2c(cc1S(=O)(=O)Nc1ccc(C(C(=O)O)C(C)C)cc1)C(C)(C)CCC2(C)C (stereo not shown) [Cmpd 19] for me?
# output > 100 µM
